measured.target: CDK6/CyclinD3 (Homo sapiens, UniProt Q00534)
Construct: purchased Carna 04-107
Sequence (Q00534 whole entry): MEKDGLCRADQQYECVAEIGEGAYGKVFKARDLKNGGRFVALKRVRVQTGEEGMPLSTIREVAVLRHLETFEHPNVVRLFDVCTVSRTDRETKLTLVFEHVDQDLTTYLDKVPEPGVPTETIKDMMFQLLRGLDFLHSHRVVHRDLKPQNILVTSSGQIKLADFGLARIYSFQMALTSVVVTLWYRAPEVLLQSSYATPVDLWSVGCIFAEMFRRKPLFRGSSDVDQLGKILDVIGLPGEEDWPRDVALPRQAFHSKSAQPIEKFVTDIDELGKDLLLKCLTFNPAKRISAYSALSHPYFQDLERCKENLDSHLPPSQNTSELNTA
Sequence (P30281 whole entry partner): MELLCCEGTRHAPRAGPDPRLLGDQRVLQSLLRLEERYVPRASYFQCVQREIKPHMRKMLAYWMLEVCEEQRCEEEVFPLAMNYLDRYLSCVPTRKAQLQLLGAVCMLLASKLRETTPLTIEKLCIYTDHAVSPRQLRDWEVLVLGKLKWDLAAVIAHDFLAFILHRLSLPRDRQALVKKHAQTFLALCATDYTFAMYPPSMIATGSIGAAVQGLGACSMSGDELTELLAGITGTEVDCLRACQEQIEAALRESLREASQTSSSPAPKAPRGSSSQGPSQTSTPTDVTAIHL
assay.comment: Assay for inhibition of CDK6/CyclinD3 (Caliper microfluidic kinase assay)
Format: biochemical
experimental.conditions: comparative compound
pIC50: −log10 of the molar value.
experimental.readout: pIC50

Recorded pIC50 (compound C=CC(=O)Nc1cc(Nc2ncc(F)c(-c3ccn4nc(C)c(C)c4c3)n2)c(OC)cc1N(C)CCN(C)C [Compound 10 disclosed in CN109503573A, reference compound] ): < 5.00

###

Test system: T47D breast cancer cells
assay.comment: Anti-proliferation assay in T47D cell (Cyquant, day 6)
Assay type: cell-based, human
experimental.conditions: Homo sapiens, T47D, read-out: T47D IC50
experimental.readout: IC50

[
  {
    "molecule": "CCN1CCN(c2ccc(Nc3ncc(F)c(-c4cc5c(nc(C)n5C(C)C)c(OC)n4)n3)nc2)C(=O)C1 [Synthetic Example 128]",
    "value": "0.1 to 0.5 µM"
  }
]

Recorded IC50 (molecule CC(C)c1cnn2ccc(-c3ccnc(Nc4ccc(N5CCN(C6CNC6)CC5=O)cn4)n3)cc12 [Synthetic Example 40] ): < 0.1 µM

###

measured.target: CDK4/CyclinD1 (Homo sapiens, UniProt P11802)
Construct: purchased Thermofisher PR8064A
Sequence (P11802 whole entry): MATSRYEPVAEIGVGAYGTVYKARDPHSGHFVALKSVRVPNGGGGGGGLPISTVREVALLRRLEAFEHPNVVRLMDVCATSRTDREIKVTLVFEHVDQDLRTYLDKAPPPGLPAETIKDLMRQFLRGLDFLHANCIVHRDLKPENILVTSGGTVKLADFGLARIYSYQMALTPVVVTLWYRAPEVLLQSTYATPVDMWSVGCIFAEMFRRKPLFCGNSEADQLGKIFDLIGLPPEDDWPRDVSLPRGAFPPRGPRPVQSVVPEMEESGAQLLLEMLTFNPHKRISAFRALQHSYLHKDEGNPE
Sequence (P24385 whole entry partner): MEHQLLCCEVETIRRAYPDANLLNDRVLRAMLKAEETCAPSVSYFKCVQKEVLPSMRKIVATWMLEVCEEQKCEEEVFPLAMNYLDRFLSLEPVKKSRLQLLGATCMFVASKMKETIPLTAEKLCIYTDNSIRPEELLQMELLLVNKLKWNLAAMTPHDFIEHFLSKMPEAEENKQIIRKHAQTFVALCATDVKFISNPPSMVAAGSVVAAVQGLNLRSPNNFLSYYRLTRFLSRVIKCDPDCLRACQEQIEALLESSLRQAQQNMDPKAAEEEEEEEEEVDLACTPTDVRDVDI
assay.comment: Assay for inhibition of CDK4/CyclinD1 (Caliper microfluidic kinase assay)
Type: biochemical
experimental.conditions: CDK4/CyclinD1, 200 μM ATP
experimental.readout: IC50

Example cases with answers are listed next.
[
  {
    "compound": "CC(C)c1cnn2ccc(-c3nc(Nc4ccc(N5CCN(C6COC6)CCC5=O)cn4)ncc3F)cc12 [Synthetic Example 43]",
    "value": "< 10 nM"
  },
  {
    "compound": "CC(C)c1cnn2ccc(-c3nc(Nc4ccc(N5CCN(S(C)(=O)=O)CC5=O)cn4)ncc3F)cc12 [compound 51]",
    "value": "< 10 nM"
  },
  {
    "compound": "CC(C)n1cnc2c(F)nc(-c3ccnc(NC4CCN(S(C)(=O)=O)CC4)n3)cc21 [compound 310]",
    "value": "10 to 100 nM"
  }
]

Please find the next compound below.
Log: CDK4/CyclinD1 (Homo sapiens, UniProt P11802), compound CNC1CCN(c2ccc(Nc3nccc(-c4ccn5ncc(C(C)C)c5c4)n3)nc2)C(=O)C1 (single isomer, unassigned) [Synthetic Example 205] , IC50 = < 10 nM

###

measured.target: CDK6/CyclinD3 (Homo sapiens, UniProt Q00534)
Construct: purchased Carna 04-107
assay.comment: Assay for inhibition of CDK6/CyclinD3 (Caliper microfluidic kinase assay)
Format: biochemical
experimental.conditions: CDK6/CyclinD3, 300 μM ATP
pIC50: −log10 of the molar value.
experimental.readout: pIC50

Example cases with answers are listed next.
[
  {
    "molecule": "COc1nc(-c2ccnc(Nc3ccc(N4CCN(CCF)CC4)cn3)n2)cc2c1ncn2C(C)C [compound 123]",
    "measured.target": "CDK6/CyclinD3 (Homo sapiens, UniProt Q00534)",
    "value": "7.00 to 8.00"
  },
  {
    "molecule": "CC(C)c1cnn2ccc(-c3ccnc(Nc4ccc(N5CCCC(N)C5=O)cn4)n3)cc12 (stereo not drawn) [compound 207]",
    "measured.target": "CDK6/CyclinD3 (Homo sapiens, UniProt Q00534)",
    "value": "> 8.00"
  },
  {
    "molecule": "CC(C)c1cnn2ccc(-c3ccnc(Nc4ccc(N5CCOCC5=O)cn4)n3)cc12 [compound 28]",
    "measured.target": "CDK6/CyclinD3 (Homo sapiens, UniProt Q00534)",
    "value": "7.00 to 8.00"
  },
  {
    "molecule": "O=C1COCCN1c1ccc(Nc2ncc(F)c(-c3ccn4ncc(C5=CCOCC5)c4c3)n2)nc1 [compound 17]",
    "measured.target": "CDK6/CyclinD3 (Homo sapiens, UniProt Q00534)",
    "value": "6.00 to 7.00"
  },
  {
    "molecule": "COc1nc(-c2ccnc(Nc3ccc(N4CC5CC4CN5)cn3)n2)cc2c1ncn2C(C)C (stereo not drawn) [compound 109]",
    "measured.target": "CDK6/CyclinD3 (Homo sapiens, UniProt Q00534)",
    "value": "7.00 to 8.00"
  }
]

// input: 2 molecules below; output: pIC50 for each
1. CC(C)c1cnn2ccc(-c3ccnc(Nc4ccc(N5CCNCC5=O)cn4)n3)cc12 [compound 37]
2. CC(C)c1cnn2ccc(-c3nc(Nc4ccc(N5CCN(CC(F)(F)F)CC5=O)cn4)ncc3F)cc12 [compound 53]

*A*
1. 7.00 to 8.00
2. 7.00 to 8.00

// input: 5 molecules below; output: pIC50 for each
1. COc1nc(-c2nc(Nc3ccc(N4CCC(N(C)C)CC4=O)cn3)ncc2F)cc2c1nc(C)n2C(C)C (single isomer, unassigned) [Example 62-2]
2. CC(C)n1cnc2c(F)nc(-c3ccnc(Nc4ccc(N5CCCC(N(C)C)C5=O)cn4)n3)cc21 (stereo not drawn) [compound 283]
3. CC(C)n1cnc2c(F)nc(-c3ccnc(Nc4ccc(N5CCOCC5=O)cn4)n3)cc21 [Synthetic Example 61]
4. CC(C)c1cnn2ccc(-c3nc(Nc4ccc(N5CCN(C6COC6)CCC5=O)cn4)ncc3F)cc12 [Synthetic Example 43]
5. CNC(=O)c1ccc(Nc2nccc(-c3ccn4ncc(C(C)C)c4c3)n2)cc1 [compound 166]

*A*
1: 7.00 to 8.00; 2: > 8.00; 3: 7.00 to 8.00; 4: 7.00 to 8.00; 5: 7.00 to 8.00
